B1: Chromodomain-helicase-DNA-binding protein 7, residues 2564 to 2605; numbered along this chain, Q9P2D1 (parent)
chain: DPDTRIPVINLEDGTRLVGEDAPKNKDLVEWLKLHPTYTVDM

- Variants of: B1
- EXPERIMENT: abundance fitness (aPCA) (normalised: wild type 0, dead -1); higher = more abundant; growth selection in yeast, the domain comes from the species named
- CONDITIONS USED: Homo sapiens
This listing pairs variants with measured abundance fitness.
READOUT TYPE: abundance fitness

| MUTANT LABEL | OBSERVED |
| --- | --- |
| G19W | -0.638 |
| L32S | -0.255 |
| D41C | -0.531 |
| G14W | -0.084 |
| N25A | -0.206 |
| L34K | -0.029 |
| N25S | -0.101 |
| D13V | -0.421 |
| I6L | -0.697 |
| D3R | -0.256 |
| T15M | -0.264 |
| Y38W | 0.085 |
| P23L | -0.725 |
| P36A | -0.561 |
| R16A | -0.039 |
| D1V | -0.184 |
| N25C | -0.274 |
| V18E | 0.039 |
| V40T | -0.08 |
| L28G | -0.401 |
| R16L | -0.077 |
| V8D | -0.511 |
| I9C | -0.123 |
| V29L | -0.109 |

Values from the Human Domainome abundance scans (Beltran et al. 2025)
